# ASSAY TARGET: SARS-CoV-2 receptor-binding domain (RBD) (SARS-CoV-2, UniProt P0DTC2)
# PROTOCOL DETAILS: SPR
Listed binders paired with reported log10 koff
Record value = log10 of koff given in s⁻¹.

Example binders with recorded log10 koff:
Nb-C2-136 nanobody (VHH) VHH: EVQLQESGGGLVQPGGSLRLSCAASGFTFSSYAMGWYRQAPGKEREWVCAISGSGGSTYYADSVKGRFTCSRDNSKNTLYLQMNSLKPEDTAVYYCARYGGPYDPTDSTYAFDYWGQGTQVTVSS | -1.49
LM18 nanobody (VHH) VHH: EVQLQESGGGLVQPGGSLRLSCAASGFTFSSYALGWYRQAPGKEREWVCAISGSGGSTYYADSVKGRFTCSRDNSKNTLYLQMNSLKPEDTAVYYCARVYQFYGARDYGYPYDFDYWGQGTQVTVSS | -1.03
Nb-C4-255 nanobody (VHH) VHH: EVQLQESGGGLVQPGGSLRLSCAASGFTFSSYAMGWYRQAPGKEREWVCAISGSGGSTYYADSVKGRFTCSRDNSKNTLYLQMNSLKPEDTAVYYCARQAWYYSPYGGPEFEAFDYWGQGTQVTVSS | -0.53

input: Field request: log10 koff | item: Nb-C4-240 nanobody (VHH) VHH: EVQLQESGGGLVQPGGSLRLSCAASGFTFSSYAMGWYRQAPGKEREWVCAISGSGGSTYYADSVKGRFTCSRDNSKNTLYLQMNSLKPEDTAVYYCARVVSYYDQTGFVYWQSYDYWGQGTQVTVSS
output: -0.01

input: Another binder to look at: Nb-C4-225 nanobody (VHH) VHH: EVQLQESGGGLVQPGGSLRLSCAASGFTFSSYAMGWYRQAPGKEREWVCAISGSGGSTYYADSVKGRFTCSRDNSKNTLYLQMNSLKPEDTAVYYCARGSFYYTYGGSVGFDAFDYWGQGTQVTVSS
output: -2.24
